procedure_details: Selectivity ratio of IC50 for recombinant PKA to IC50 for AKT1
quantity_kind: Ratio IC50

Answered cases to consult:
molecule	Ratio IC50
N#Cc1c[nH]c2ncnc(N3CC[C@](N)(CNC(=O)c4ccc(F)cc4)C3)c12	120
Cc1c[nH]c2ncnc(N3CC[C@](N)(CNC(=O)c4ccc(F)cc4)C3)c12	522
CCN[C@@H]1CCN(c2ncnc3[nH]cc(C)c23)C1	1.6
Cc1c[nH]c2ncnc(N3CC[C@@H](NS(C)(=O)=O)C3)c12	0.4
N[C@]1(CNC(=O)c2ccc(F)cc2F)CCN(c2ncnc3[nH]cc(Cl)c23)C1	50.9
CCc1c[nH]c2ncnc(N3CC[C@](N)(CNC(=O)c4ccc(F)cc4)C3)c12	645
N[C@]1(CNC(=O)c2ccc(Cl)cc2)CCN(c2ncnc3[nH]cc(Cl)c23)C1	39.8
Cc1c[nH]c2ncnc(N3CCC(N)(CNC(=O)Oc4ccccc4)C3)c12 (racemic)	51.2

(I) CC(=O)N[C@@H]1CCN(c2ncnc3[nH]cc(C)c23)C1
(II) Cc1c[nH]c2ncnc(N3CCC(N)(CNc4ccccc4)C3)c12 (single isomer, unassigned; enantiomer 1)
Qu. Please indicate which has the smaller reported Ratio IC50: I , or II . Respond using the label that marks the chosen record.
Ans. I
